# System: MCF7
# test summary: Cytotoxicity against human MCF7 cells after 48 hrs by MTT assay
# Format: functional, cell-based
# stated conditions: MCF7, 48 h
Give measured IC50 for each item. Keep answers brief.

Give the measured IC50 of O=C1c2cccc3c(-n4cc(-c5ccccc5)nn4)ccc(c23)C(=O)N1CCO .
> 100000 nM

Reported IC50 for CN(C)CCN1C(=O)c2cccc3cc(N)cc(c23)C1=O [AMONAFIDE] : what is it?
1680 nM

I am curious: what IC50 value has been reported for CCN(CC)CCN1C(=O)c2cccc3c(-n4cc(-c5ccccc5)nn4)ccc(c23)C1=O ?
1090 nM

Requested field: IC50. Item: CN(C)CCN1C(=O)c2cccc3c(-n4cc(-c5ccccc5)nn4)ccc(c23)C1=O
323 nM

Reported IC50, compound O=C1c2cccc3c(-n4cc(-c5ccccc5)nn4)ccc(c23)C(=O)N1CCN1CCNCC1 : ____
836 nM

Find the recorded IC50 belonging to CCCCN1C(=O)c2cccc3c(-n4cc(-c5ccccc5)nn4)ccc(c23)C1=O and report it.
19500 nM
